Recorded measurements of pIC50, one per entry
- test.target: IRAK1 (Homo sapiens, UniProt P51617)
- Sequence (P51617 whole entry): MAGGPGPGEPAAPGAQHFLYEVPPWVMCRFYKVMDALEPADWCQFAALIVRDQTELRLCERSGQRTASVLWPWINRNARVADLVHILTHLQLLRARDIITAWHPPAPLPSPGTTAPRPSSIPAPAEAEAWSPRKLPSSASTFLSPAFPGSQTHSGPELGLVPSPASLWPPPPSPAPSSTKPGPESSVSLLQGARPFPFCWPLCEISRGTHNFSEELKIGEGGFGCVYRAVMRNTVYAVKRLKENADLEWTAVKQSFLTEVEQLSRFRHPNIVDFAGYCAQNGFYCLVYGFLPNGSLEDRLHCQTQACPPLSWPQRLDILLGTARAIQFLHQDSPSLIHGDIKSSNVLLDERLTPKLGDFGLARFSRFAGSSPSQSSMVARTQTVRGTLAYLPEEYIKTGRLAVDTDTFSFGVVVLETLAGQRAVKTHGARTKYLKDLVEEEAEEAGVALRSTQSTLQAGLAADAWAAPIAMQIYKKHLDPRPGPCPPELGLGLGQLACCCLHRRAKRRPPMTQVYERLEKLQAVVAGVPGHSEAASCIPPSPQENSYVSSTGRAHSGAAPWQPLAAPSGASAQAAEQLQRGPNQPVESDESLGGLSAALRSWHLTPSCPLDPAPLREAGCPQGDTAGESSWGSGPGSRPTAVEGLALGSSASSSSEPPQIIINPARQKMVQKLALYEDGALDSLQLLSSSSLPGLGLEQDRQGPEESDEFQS
- protocol: RBC HotSpot Kinase Assay, IRAK1
- condition.parameters: IRAK1 IC50
pIC50: −log10 of the molar value.

{"columns": ["compound", "test.target", "value.operator", "pIC50"],
 "data": [
  ["COc1ccn2c(-c3ccnc(N[C@@H]4CCCNC4)n3)cnc2c1", "IRAK1 (Homo sapiens, UniProt P51617)", "=", 7.89],
  ["F[C@H]1CNC[C@@H]1Nc1cncc(-c2cnc3cc(OC4CC4)ccn23)n1", "IRAK1 (Homo sapiens, UniProt P51617)", "=", 7.62],
  ["COc1cc2ncc(-c3ccnc(N[C@@H]4CCCNC4)n3)n2cc1C(C)(O)C(F)(F)F (single isomer, unassigned)", "IRAK1 (Homo sapiens, UniProt P51617)", ">", 9.30],
  ["COc1cc2ncc(-c3ccnc(N[C@H]4CNC[C@@H]4F)n3)n2nc1C1CC1", "IRAK1 (Homo sapiens, UniProt P51617)", "=", 7.96]
]}

====

- test.target: IRAK1 (Homo sapiens, UniProt P51617)
- protocol: RBC HotSpot Kinase Assay, IRAK1
- condition.parameters: IRAK1 IC50
pIC50: −log10 of the molar value.
Recorded measurements of pIC50, one per entry
readout.name: pIC50

{"columns": ["compound", "readout.name", "recorded.number"],
 "data": [
  ["F[C@H]1CCNC[C@@H]1Nc1nccc(-c2cnc3cc(OC4CC4)ccn23)n1", "pIC50", 7.96],
  ["CC(C)(O)c1ccc2ncc(-c3ccnc(N[C@@H]4CCCNC4)n3)n2c1", "pIC50", 6.91],
  ["FC(F)COc1ccn2c(-c3ccnc(N[C@H]4CNC[C@@H]4F)n3)cnc2c1", "pIC50", 8.05],
  ["CC(O)(c1cn2c(-c3ccnc(N[C@H]4CNC[C@@H]4F)n3)cnc2cn1)C(F)(F)F (single isomer, unassigned) [Compound 69]", "pIC50", 7.57],
  ["CC(C)Oc1ccn2c(-c3cncc(N[C@@H]4CCCNC4)n3)cnc2c1", "pIC50", 6.95],
  ["COc1cc2ncc(-c3cncc(N[C@H]4CNC[C@@H]4F)n3)n2cc1C(C)(C)O", "pIC50", 8.52],
  ["COc1ccn2c(-c3cncc(N[C@H]4CNC[C@@H]4F)n3)cnc2c1", "pIC50", 7.54],
  ["CC(C)(O)c1ccc2ncc(-c3ccnc(N[C@H]4CNC[C@@H]4F)n3)n2c1", "pIC50", 7.10],
  ["FC(F)Oc1ccn2c(-c3ccnc(N[C@H]4CNCC[C@@H]4F)n3)cnc2c1", "pIC50", 7.77],
  ["CC(O)(c1cn2c(-c3cncc(N[C@H]4CNC[C@@H]4F)n3)cnc2cn1)C(F)(F)F (single isomer, unassigned) [Compound 77]", "pIC50", 7.05],
  ["COc1cc2ncc(-c3cncc(N[C@H]4CNC[C@@H]4F)n3)n2nc1C(C)(O)C(F)(F)F (single isomer, unassigned) [Compound 81]", "pIC50", 5.10],
  ["O=C1CCCN1c1cn2c(-c3ccnc(N[C@@H]4CCCNC4)n3)cnc2cn1", "pIC50", 7.17],
  ["CC(O)(c1cn2c(-c3ccnc(N[C@H]4CNC[C@@H]4F)n3)cnc2cn1)C(F)(F)F (single isomer, unassigned) [Compound 71]", "pIC50", 8.30],
  ["COc1ccn2c(-c3ccnc(N[C@H]4CNC[C@@H]4F)n3)cnc2c1", "pIC50", 8.22]
]}
